Taken from PubChem BioAssay (NCI).

- Tested on: NCI/ADR-RES ovarian
- experimentalDetails: NCI tumour cell line growth inhibition, 48 h
List of GI50 values.

The cases that follow already have their GI50 on record.
O=c1oc(-c2ccccc2)cc2cccc(O)c12    33.3 µM
CCCCOC(=O)c1ccc(NC(=O)CCl)cc1    2.79 µM
C[C@@H](NC(=O)[C@@H](CC(=O)N1CCC(N2CCCCC2)CC1)N1C(=O)[C@@H](N2C(=O)OC[C@@H]2c2ccccc2)[C@H]1/C=C/c1cccc(Cl)c1)c1ccccc1    5.92 µM
Cn1cc(-c2nc(-c3c[nH]c4ccncc34)cs2)c2cc(F)ccc21    1.93 µM

Quick check: GI50 of Cc1cc([N+](=O)[O-])ccc1NS(=O)(=O)c1cc(Cl)ccc1Cl ?
3.07 µM

What do we get for CSc1n(Cc2ccc3ccccc3c2)c(C)c[n+]1Cc1ccc2ccccc2c1 ?
12.8 µM

What do we get for C[C@]1(C(=O)O)N[C@H](C(=O)O)CS1 ?
> 1000 µM

What do we get for CCOC(=O)NC1=C(N2CC2)C(=O)C(NC(=O)OCC)=C(N2CC2)C1=O ?
8.44 µM

What do we get for COc1cc2c(cc1OC)-c1ccc3cc4c(cc3c1N(CCN(C)C)C2)OCO4 ?
10.9 µM

What do we get for Cc1cc(Nc2ccc(F)cc2)nc(N2CCN(c3ccnc4cc(Cl)ccc34)CC2)n1 ?
2.88 µM

What do we get for O=C(O)c1ccc2c3c(ncnc13)-c1ccccc1C2=O ?
42.8 µM

What do we get for O=CC(Br)C(Br)c1ccccc1 (centres undefined) ?
4.77 µM

What do we get for CCOc1ccc2nc(-c3cccc(OCC(=O)NC(C)C)c3)nc(Nc3ccc(-c4cn[nH]c4)cc3)c2c1 ?
1.92 µM

What do we get for COc1ccc2c(c1)c1nc3cc(C)c(C)cc3nc1n2CCN(C)C ?
0.599 µM

---

List of TGI values.
- Test system: MALME-3M melanoma
- experimentalDetails: NCI tumour cell line growth inhibition, 48 h

The cases that follow already have their TGI on record.
O=C(NN1C(=O)CSC1c1ccco1)c1ccncc1 (stereo unspecified)    > 100 µM
O=C(CCc1ccc(O)c(O)c1)NCCc1ccc(O)c(O)c1    > 100 µM
COC12OC3CC4(C)C(=CC3OC(OC(C)C1O)C2O)CCC1C4CCC2(C)C(c3ccc(=O)oc3)CCC12O (stereo unspecified)    0.00391 µM
NC(=O)c1ncn2c(=O)n(CCl)nnc12    > 100 µM
C[n+]1c2ccccc2c(Nc2ccc(NS(=O)(=O)CCCCN=C(N)N)cc2)c2ccc(N)cc21    35.2 µM

Now look at this one.
State its TGI on MALME-3M melanoma: Cc1cc([N+](=O)[O-])ccc1NS(=O)(=O)c1cc(Cl)ccc1Cl
6.83 µM

---

- Test system: RPMI-8226 leukemia
- experimentalDetails: NCI tumour cell line growth inhibition, 48 h
observable: TGI

Quick check: TGI of O=C1[C@H]2ON(c3ccccc3)C(c3ccccc3F)[C@H]2C(=O)N1c1ccc(Cc2ccc(N3C(=O)[C@@H]4ON(c5ccccc5)C(c5ccccc5F)[C@@H]4C3=O)cc2)cc1 (stereo partly drawn) ?
> 100 µM

What do we get for CN1C(=O)C(=Cc2cn(Cc3ccccc3)c3ccccc23)C(=O)N(C)C1=O ?
> 100 µM

What do we get for CCOc1ccc2nc(-c3cccc(OCC(=O)NC(C)C)c3)nc(Nc3ccc(-c4cn[nH]c4)cc3)c2c1 ?
4.9 µM

What do we get for CCOC(=O)c1nc2cc(C(F)(F)F)ccc2nc1Nc1ccc(F)cc1 ?
61.6 µM

What do we get for CC(C)(C)c1cc(/C=C/C(=O)CC(=O)/C=C/c2cc(C(C)(C)C)c(O)c(C(C)(C)C)c2)cc(C(C)(C)C)c1O ?
> 50 µM

What do we get for O=C(/C=C/c1cccc([N+](=O)[O-])c1)c1ccc(O)c(CN2CCN(c3cc4c(cc3F)c(=O)c(C(=O)O)cn4C3CC3)CC2)c1 ?
2.82 µM

What do we get for Cc1ccc(C(=O)N2CCN(C(=O)c3ccc(C)cc3)c3ccccc32)cc1 ?
> 58.2 µM

What do we get for COc1cc2cc3c4c(cc(OC)c(OC)c4c2cc1OC)CCN3C(=O)N(C)C ?
> 100 µM
